Kindly supply the reported IC50 values for the records listed here.
# Test system: HCV replicon genotype 1b
# assay-info: HCV replicon assay, genotype 1b (cell ELISA for NS3/4A)
# Format: cell-based, hepatitis C virus
# conditions: Hepatitis C virus, 96 h, read-out: 1b IC50 (nM), HCV genotype 1b replicon cells, 96 hours incubation, NS3/4A ELISA readout, % of DMSO control
Answers are plain numbers, in nM.

Field: example entries. Status: answers known.
* CNC(=O)c1c(-c2ccc(F)cc2)oc2cc(N(C)S(C)(=O)=O)c([C@H]3CCCN(S(=O)(=O)c4cc5ccccc5o4)C3)cc12 | 22.4
* CNC(=O)c1c(-c2ccc(F)cc2)oc2cc(N(C)S(C)(=O)=O)c([C@@H]3CCCN(S(=O)(=O)c4ccc(C)cc4)C3)cc12 | 21.9

For each of the compounds below, note its IC50.
1. CNC(=O)c1c(-c2ccc(F)cc2)oc2cc(N(C)S(C)(=O)=O)c([C@@H]3CCCN(C(=O)c4cc5cccnc5[nH]4)C3)cc12 (stereo in doubt)
2. CNC(=O)c1c(-c2ccc(F)cc2)oc2cc(N(C)S(C)(=O)=O)c([C@H]3CCCN(S(=O)(=O)c4cccc5nonc45)C3)cc12

(A)
21.2
55.7

* * *

# Test system: HCV replicon genotype 1b
# assay-info: HCV replicon assay, genotype 1b (cell ELISA for NS3/4A)
# Assay type: cell-based, hepatitis C virus
# conditions: Hepatitis C virus, 96 h, read-out: 1b IC50 (nM), HCV genotype 1b replicon cells, 96 hours incubation, NS3/4A ELISA readout, % of DMSO control
# Protocol: The HCV NS5B inhibitory activity of the present compounds may be tested using assays known in the art. The HCV NS5B polymerase inhibitors described herein have activities in a genotype 1b replicon assay as described in the Examples. […] By performing a series of such measurements at different inhibitor concentrations, the effective inhibitory concentration of the inhibitor (EC50 or EC90) is determined. […]
Kindly supply the reported IC50 values for the records listed here.
Answers are plain numbers, in nM.

Field: example entries. Status: answers known.
- CNC(=O)c1c(-c2ccc(F)cc2)oc2cc(N(C)S(C)(=O)=O)c([C@@H]3CCCN(C(=O)c4nc5ccccc5s4)C3)cc12: 22.8
- CNC(=O)c1c(-c2ccc(F)cc2)oc2cc(N(C)S(C)(=O)=O)c([C@H]3CCCN(C(=O)c4[nH]c5c(F)cccc5c4C)C3)cc12: 116
- CNC(=O)c1c(-c2ccc(F)cc2)oc2cc(N(C)S(C)(=O)=O)c([C@H]3CCCN(C(=O)c4n[nH]c5cc(Br)ccc45)C3)cc12: 66.7
- CNC(=O)c1c(-c2ccc(F)cc2)oc2cc(N(C)S(C)(=O)=O)c([C@@H]3CCCN(S(=O)(=O)Cc4ccncc4)C3)cc12: 26.2
- CNC(=O)c1c(-c2ccc(F)cc2)oc2cc(N(C)S(C)(=O)=O)c([C@@H]3CCCN(C(=O)C4CC4c4ccc(F)cc4)C3)cc12 (stereo in doubt): 99.5
- CCn1c(C(=O)N2CCC[C@H](c3cc4c(C(=O)NC)c(-c5ccc(F)cc5)oc4cc3N(C)S(C)(=O)=O)C2)cc2c(F)cccc21: 65.3
- CNC(=O)c1c(-c2ccc(F)cc2)oc2cc(N(C)S(C)(=O)=O)c([C@@H]3CCCN(C(=O)c4nc5ccc(F)cc5[nH]4)C3)cc12: 9.96
- CNC(=O)c1c(-c2ccc(F)cc2)oc2cc(N(C)S(C)(=O)=O)c([C@@H]3CCCN(C(=O)c4nc5ccccc5o4)C3)cc12: 19.2
- CNC(=O)c1c(-c2ccc(F)cc2)oc2cc(N(C)S(C)(=O)=O)c([C@@H]3CCCN(S(=O)(=O)c4ccccc4)C3)cc12: 9.37
- CNC(=O)c1c(-c2ccc(F)cc2)oc2cc(N(C)S(C)(=O)=O)c([C@@H]3CCCN(c4nc5c(C#N)cccc5o4)C3)cc12: 19.3

For each of the compounds below, note its IC50.
1. CNC(=O)c1c(-c2ccc(F)cc2)oc2cc(N(C)S(C)(=O)=O)c([C@H]3CCCN(C(=O)c4cn5c(Br)cccc5n4)C3)cc12
2. CNC(=O)c1c(-c2ccc(F)cc2)oc2cc(N(C)S(C)(=O)=O)c([C@H]3CCCN(S(=O)(=O)c4ccccc4)C3)cc12

(A)
1: 110; 2: 58.3

* * *

# Test system: HCV replicon genotype 1b
# assay-info: HCV replicon assay, genotype 1b (cell ELISA for NS3/4A)
# Assay type: cell-based, hepatitis C virus
# conditions: Hepatitis C virus, 96 h, read-out: 1b IC50 (nM), HCV genotype 1b replicon cells, 96 hours incubation, NS3/4A ELISA readout, % of DMSO control
Kindly supply the reported IC50 values for the records listed here.
Answers are plain numbers, in nM.

Field: example entries. Status: answers known.
• CNC(=O)c1c(-c2ccc(F)cc2)oc2cc(N(C)S(C)(=O)=O)c([C@@H]3CCCN(C(=O)[C@H](N)c4ccccc4F)C3)cc12 (single isomer, unassigned) = 148
• CNC(=O)c1c(-c2ccc(F)cc2)oc2cc(N(C)S(C)(=O)=O)c([C@H]3CCCN(C(=O)c4cc5cc(F)ccc5[nH]4)C3)cc12 = 20.7
• CNC(=O)c1c(-c2ccc(F)cc2)oc2cc(N(C)S(C)(=O)=O)c([C@H]3CCCN(S(=O)(=O)c4c(Cl)nc5sccn45)C3)cc12 = 74.7
• CNC(=O)c1c(-c2ccc(F)cc2)oc2cc(N(C)S(C)(=O)=O)c([C@@H]3CCCN(C(=O)c4oc5ccc(F)cc5c4C)C3)cc12 = 41.2
• CNC(=O)c1c(-c2ccc(F)cc2)oc2cc(N(C)S(C)(=O)=O)c([C@@H]3CCCN(c4ncc(-c5ccc(F)cc5)o4)C3)cc12 (single isomer, unassigned) = 22.2
• CNC(=O)c1c(-c2ccc(F)cc2)oc2cc(N(C)S(C)(=O)=O)c([C@H]3CCCN(S(=O)(=O)Cc4ccccc4F)C3)cc12 = 11.6

For each of the compounds below, note its IC50.
1. CNC(=O)c1c(-c2ccc(F)cc2)oc2cc(N(C)S(C)(=O)=O)c([C@H]3CCCN(S(=O)(=O)Cc4cccc(F)c4)C3)cc12
2. CNC(=O)c1c(-c2ccc(F)cc2)oc2cc(N(C)S(C)(=O)=O)c([C@H]3CCCN(C(=O)c4nc5ccc(F)cc5[nH]4)C3)cc12
3. CNC(=O)c1c(-c2ccc(F)cc2)oc2cc(N(C)S(C)(=O)=O)c([C@@H]3CCCN(C(=O)c4[nH]c5c(F)cccc5c4C)C3)cc12
4. CNC(=O)c1c(-c2ccc(F)cc2)oc2cc(N(C)S(C)(=O)=O)c([C@H]3CCCN(S(=O)(=O)Cc4ccccc4)C3)cc12
5. CNC(=O)c1c(-c2ccc(F)cc2)oc2cc(N(C)S(C)(=O)=O)c([C@@H]3CCCN(C(=O)c4nc5ncccc5[nH]4)C3)cc12

(A)
3.26
97
92.8
3.04
48.9

(Q) Could you tell me which IC50 is on file for CNC(=O)c1c(-c2ccc(F)cc2)oc2cc(N(C)S(C)(=O)=O)c([C@H]3CCCN(S(=O)(=O)c4cc5cccc(F)c5[nH]4)C3)cc12 ?
(A) 109

* * *

# Test system: HCV replicon genotype 1b
# assay-info: HCV replicon assay, genotype 1b (cell ELISA for NS3/4A)
# Format: cell-based, hepatitis C virus
# conditions: Hepatitis C virus, 96 h, read-out: 1b IC50 (nM), HCV genotype 1b replicon cells, 96 hours incubation, NS3/4A ELISA readout, % of DMSO control
attribute-measured: log10 of IC50 (log10 of the value in nM)
Base-10 log of IC50, unit nM.

Field: example entries. Status: answers known.
- CNC(=O)c1c(-c2ccc(F)cc2)oc2cc(N(C)S(C)(=O)=O)c([C@H]3CCCN(C(=O)c4cn5c(Cl)cccc5n4)C3)cc12 [Example 107]: 2.06
- CNC(=O)c1c(-c2ccc(F)cc2)oc2cc(N(C)S(C)(=O)=O)c([C@@H]3CCCN(S(=O)(=O)CCc4ccccc4)C3)cc12 [Example 124]: 1.86
- CCn1c(C(=O)N2CCC[C@@H](c3cc4c(C(=O)NC)c(-c5ccc(F)cc5)oc4cc3N(C)S(C)(=O)=O)C2)cc2c(F)cccc21 [Example 33]: 2.29
- CNC(=O)c1c(-c2ccc(F)cc2)oc2cc(N(C)S(C)(=O)=O)c([C@@H]3CCCN(S(=O)(=O)Cc4ccccc4)C3)cc12 [Example 121]: 1.38
- CNC(=O)c1c(-c2ccc(F)cc2)oc2cc(N(C)S(C)(=O)=O)c([C@H]3CCCN(S(=O)(=O)Cc4ccccn4)C3)cc12 [Example 139]: 1.32

Consider the additional molecule presented here.
(Q) Could you tell me which log10 of IC50 is on file for CNC(=O)c1c(-c2ccc(F)cc2)oc2cc(N(C)S(C)(=O)=O)c([C@@H]3CCCN(C(=O)c4cc5ccccc5[nH]4)C3)cc12 (single isomer, unassigned) [Example 21] ?
(A) 1.00
